# TEST_NAME: Part A single-dose pharmacokinetics of long-acting setmelanotide formulation in healthy obese subjects
# Type: in vivo, human
# SETTINGS: human, plasma; single SC dose 10 mg

{"columns": ["COMPOUND", "half-life"],
 "data": [
  ["CC(=O)N[C@@H](CCCNC(=N)N)C(=O)N[C@H]1CSSC[C@@H](C(N)=O)NC(=O)[C@H](Cc2c[nH]c3ccccc23)NC(=O)[C@H](CCCNC(=N)N)NC(=O)[C@@H](Cc2ccccc2)NC(=O)[C@H](Cc2c[nH]cn2)NC(=O)[C@@H](C)NC1=O [setmelanotide]", "123 h"]
]}

====

# TEST_NAME: Part B multiple-dose pharmacokinetics (once weekly for 4 weeks) in obese subjects
# Format: in vivo, human
# SETTINGS: human, plasma; 10 mg SC once weekly for 4 weeks, end of 1-week dosing interval; read-out: mean concentration at 168 hours
MEASURE_NAME: level at 168 h (ng/mL)

{"columns": ["COMPOUND", "MEASURE_NAME", "READING"],
 "data": [
  ["CC(=O)N[C@@H](CCCNC(=N)N)C(=O)N[C@H]1CSSC[C@@H](C(N)=O)NC(=O)[C@H](Cc2c[nH]c3ccccc23)NC(=O)[C@H](CCCNC(=N)N)NC(=O)[C@@H](Cc2ccccc2)NC(=O)[C@H](Cc2c[nH]cn2)NC(=O)[C@@H](C)NC1=O [setmelanotide]", "level at 168 h", 2.92]
]}

====

# TEST_NAME: Part A single-dose pharmacokinetics of long-acting setmelanotide formulation in healthy obese subjects
# Type: in vivo, human
# SETTINGS: human, plasma; single SC dose 30 mg; read-out: median tmax
MEASURE_NAME: Tmax (h)

{"columns": ["COMPOUND", "UNIT_TAG", "READING"],
 "data": [
  ["CC(=O)N[C@@H](CCCNC(=N)N)C(=O)N[C@H]1CSSC[C@@H](C(N)=O)NC(=O)[C@H](Cc2c[nH]c3ccccc23)NC(=O)[C@H](CCCNC(=N)N)NC(=O)[C@@H](Cc2ccccc2)NC(=O)[C@H](Cc2c[nH]cn2)NC(=O)[C@@H](C)NC1=O [setmelanotide]", "h", 6]
]}

====

# TEST_NAME: Part A single-dose pharmacokinetics of long-acting setmelanotide formulation in healthy obese subjects
# Assay type: in vivo, human
# SETTINGS: human, plasma; single SC dose 2.5 mg
# Protocol: In order to assess the pharmacokinetics of setmelanotide, a two part study was carried out comprising single dose administration (Part A) and multiple dose administration (Part B) with healthy obese subjects. […] 10 normal obese subjects enrolled for each dose level of Part A; 8 received active drug, and 2 received placebo. […] Setmelanotide concentrations were analyzed and safety was assessed before the next higher dose level was started. […] The actual times of blood collection were recorded.
MEASURE_NAME: Cmax

{"columns": ["MOLECULE", "MEASURE_NAME", "READING"],
 "data": [
  ["CC(=O)N[C@@H](CCCNC(=N)N)C(=O)N[C@H]1CSSC[C@@H](C(N)=O)NC(=O)[C@H](Cc2c[nH]c3ccccc23)NC(=O)[C@H](CCCNC(=N)N)NC(=O)[C@@H](Cc2ccccc2)NC(=O)[C@H](Cc2c[nH]cn2)NC(=O)[C@@H](C)NC1=O [setmelanotide]", "Cmax", "2.92 ng/mL"]
]}

====

# TEST_NAME: Part A single-dose pharmacokinetics of long-acting setmelanotide formulation in healthy obese subjects
# Assay type: in vivo, human
# SETTINGS: human, plasma; single SC dose 30 mg

{"columns": ["COMPOUND", "half-life (h)"],
 "data": [
  ["CC(=O)N[C@@H](CCCNC(=N)N)C(=O)N[C@H]1CSSC[C@@H](C(N)=O)NC(=O)[C@H](Cc2c[nH]c3ccccc23)NC(=O)[C@H](CCCNC(=N)N)NC(=O)[C@@H](Cc2ccccc2)NC(=O)[C@H](Cc2c[nH]cn2)NC(=O)[C@@H](C)NC1=O [setmelanotide]", 159]
]}

====

# TEST_NAME: Part A single-dose pharmacokinetics of long-acting setmelanotide formulation in healthy obese subjects
# Assay type: in vivo, human
# SETTINGS: human, plasma; single SC dose 30 mg
MEASURE_NAME: Cmax (ng/mL)

{"columns": ["MOLECULE", "READING"],
 "data": [
  ["CC(=O)N[C@@H](CCCNC(=N)N)C(=O)N[C@H]1CSSC[C@@H](C(N)=O)NC(=O)[C@H](Cc2c[nH]c3ccccc23)NC(=O)[C@H](CCCNC(=N)N)NC(=O)[C@@H](Cc2ccccc2)NC(=O)[C@H](Cc2c[nH]cn2)NC(=O)[C@@H](C)NC1=O [setmelanotide]", 34.1]
]}
